Value source: PubChem BioAssay

- assay-method-text: binders from COS7 lysate, DM2A8 probe, primary screen, torsin A project, cell lysate, small-molecule microarray, fluorescence 635/667 (AID 1065)
- applied-conditions: higher = more signal, COS7 lysate expressing mutant human TOR1A
measure: composite z-score
# answer = number (no unit)

These solved cases illustrate the format of a correct answer.
{"compound": "CCOC(=O)[C@H](CC(C)C)NC(=O)CCC1CC(OC(=O)NCCc2ccc(F)cc2)CC2(CCCC(COC(=O)NCc3ccccc3)O2)O1 (some centres not stated)", "composite z-score": 0.561}
{"compound": "COc1ccc([Si](C)(C)[C@H]2[C@H](CCO)O[C@@]3(C(=O)N(Cc4cccc(NC(=O)[C@H](C)O)c4)c4ccccc43)[C@@H]2C)cc1", "composite z-score": 0.634}
{"compound": "C=C(CCCC)C(=O)CC[C@@H](OC(C)=O)c1cccc(OCCO)c1", "composite z-score": -0.371}
{"compound": "CO[C@H]1COC(=O)[C@H](C)COC(=O)CC=C[C@@H](C)[C@H](OC)COC(=O)CC=C[C@@H]1C", "composite z-score": 0.682}
{"compound": "O=C1O[C@@H](c2ccccc2)[C@@H](c2ccccc2)N2[C@@H](c3ccc(OCCO)cc3)[C@]3(C(=O)Nc4ccc(C#CCCO)cc43)[C@@H](C(=O)N3CCCCCCC3)[C@H]12", "composite z-score": 2.28}

// sample `CO[C@@H]1COC(=O)CC=C[C@@H](C)[C@@H]2C=C[C@@H](O)[C@@H](COC(=O)CC=C[C@H]1C)O2` , its composite z-score was 1.08

// sample `CC(C)NC(=O)[C@@]1(c2ccc([N+](=O)[O-])cc2)CC(=O)N(CC23CC4CC(CC(C4)C2)C3)[C@@H]1c1ccc(CO)cc1I` , its composite z-score was 0.0289
